These data points were gathered from patent US11524956B2.

experiment: Rat brain concentration; format: in vivo, Sprague Dawley rats; details: Sprague Dawley, brain/plasma, po, P.O. 5 mg/Kg, 4 hr, read-out: B/P ratio
value.kind: Kp at 4 h
One number for each entry.

Value lookup for Kp at 4 h; key = CN(C)C/C=C/C(=O)Nc1cc2c(Nc3ccc(F)c(Cl)c3)ncnc2cc1C#C[C@@H]1[C@H]2COC[C@@H]12
4.4

* * *

assay: Rat brain concentration; format: in vivo, Sprague Dawley rats; conditions: Sprague Dawley, brain, po, 5 mg/kg, P.O. 5 mg/Kg, 4 hr, read-out: Brain Conc. (ng/g) No. 3
value.kind: concentration at 4 h (ng/g)
Give bare numbers, in ng/g.

Value lookup for concentration at 4 h; key = CN(C)C/C=C/C(=O)Nc1cc2c(Nc3ccc(F)c(Cl)c3)ncnc2cc1C#C[C@@H]1[C@H]2COC[C@@H]12
185

* * *

test: Rat brain concentration; format: in vivo, Sprague Dawley rats; details: Sprague Dawley, brain, po, 5 mg/kg, P.O. 5 mg/Kg, 4 hr, read-out: Brain Conc. (ng/g) No. 1
value.kind: concentration at 4 h

Value lookup for concentration at 4 h; key = CN(C)C/C=C/C(=O)Nc1cc2c(Nc3ccc(F)c(Cl)c3)ncnc2cc1C#C[C@@H]1[C@H]2COC[C@@H]12
127 ng/g

* * *

experiment: Rat pharmacokinetics studies (plasma); format: in vivo, Sprague Dawley rats; settings: male, Sprague Dawley; rat plasma, IV 1 mg/Kg; read-out: Vz
value.kind: Vd (L/kg)
One number for each entry, in L/kg.

Value lookup for Vd; key = CN(C)C/C=C/C(=O)Nc1cc2c(Nc3ccc(F)c(Cl)c3)ncnc2cc1C#C[C@@H]1[C@H]2COC[C@@H]12 [Example 4]
20.5

* * *

system: NCI-N87 cells; assay: Anti-proliferation assay of NCI-N87 cells (CCK-8); type: cell-based; settings: Homo sapiens, 72h, read-out: IC50 NCI-N87 anti-proliferation
pIC50: −log10 of the molar value.
value.kind: pIC50

Value lookup for pIC50; key = CN(C)C/C=C/C(=O)Nc1cc2c(Nc3ccc(F)c(Cl)c3)ncnc2cc1C#C[C@@H]1[C@H]2COC[C@@H]12
> 7.00

* * *

assay: Rat brain concentration; assay type: in vivo, Sprague Dawley rats; conditions: Sprague Dawley, brain/plasma, po, P.O. 5 mg/Kg, 24 hr, read-out: B/P ratio
value.kind: Kp at 24 h
Numbers only.

Value lookup for Kp at 24 h; key = CN(C)C/C=C/C(=O)Nc1cc2c(Nc3ccc(F)c(Cl)c3)ncnc2cc1C#C[C@@H]1[C@H]2COC[C@@H]12
8.7

* * *

assay: Rat pharmacokinetics studies (plasma); format: in vivo, Sprague Dawley rats; settings: male, Sprague Dawley; rat plasma, PO 5 mg/Kg
value.kind: Cmax
Units required after the number.

Value lookup for Cmax; key = CN(C)C/C=C/C(=O)Nc1cc2c(Nc3ccc(F)c(Cl)c3)ncnc2cc1C#C[C@@H]1[C@H]2COC[C@@H]12 [Example 4]
39.3 ng/mL

* * *

Assay: Rat pharmacokinetics studies (plasma)
Format: in vivo, Sprague Dawley rats
Settings: male, Sprague Dawley; rat plasma, PO 5 mg/Kg
Method: Sample preparation: The test article each was dissolved in 10% DMSO and 90% of (40% HP-β-CD in deionized water) to yield concentration at 2 mg/mL for intravenous and oral administration. Method development and plasma samples analysis were performed by Analytical Sciences Division of the Testing Facility by means of LC-MS/MS. The analytical results were confirmed using quality control samples for intra-assay variation (within day variation). […]
value.kind: AUC(0-inf) (ng·h/mL)
Answers are plain numbers, in ng·h/mL.

Value lookup for AUC(0-inf); key = CN(C)C/C=C/C(=O)Nc1cc2c(Nc3ccc(F)c(Cl)c3)ncnc2cc1C#C[C@@H]1[C@H]2COC[C@@H]12
555
